target: Insulin receptor (Homo sapiens); details: at 1 µM
OBSERVATION TYPE: residual activity (%)

1) CC(C)[C@H](CO)Nc1nc(Nc2cc(N)cc(Cl)c2)c2ncn(C(C)C)c2n1; 90
2) O=C(CCCc1ccc(-c2ccccc2F)cc1)Nc1ccc(O)cc1; 112
3) O=C1Cc2c([nH]c3ccc(Br)cc23)-c2ccccc2N1; 95
4) NCCNc1ncc(C(N)=O)c(Nc2cccc(C(F)(F)F)c2)n1; 115
5) CCN(CC)CCNC(=O)c1c(C)[nH]c(/C=C2\C(=O)Nc3ccc(Cl)cc32)c1C; 32
6) Cn1sc(=O)n(Cc2ccccc2)c1=O; 93
7) COc1ccc(-c2cnc3c(-c4ccsc4)cnn3c2)cc1; 91
8) CSc1nc(-c2ccc(F)cc2)c(-c2ccnc(NC(C)c3ccccc3)c2)[nH]1 (configuration not stated); 126
9) N#Cc1c(NC(=O)c2cccc3ccccc23)sc2c1CCCC2; 137
10) CC(C)c1nn(-c2c(Cl)cccc2Cl)c2nc(Cc3ccc(OCCO)cc3)[nH]c(=O)c12; 85
11) CC(C)(C)n1nc(Cc2cccc3ccccc23)c2c(N)ncnc21; 98
12) O=C(O)/C=C/c1cc(Br)c(Br)c(Br)c1Br; 144
13) COc1cc2nccc(Oc3ccc(NC(=S)NC(=O)c4ccccc4C)cc3)c2cc1OC; 92
14) N#C/C(=C1/Nc2ccccc2S1)c1ccnc(NCCc2cccnc2)n1; 127
15) O=C1NC(=O)C(c2cn(CCCO)c3ncccc23)=C1c1cnccn1; 122
16) CCCC(=O)Oc1ccc2[nH]c(C(=O)c3cc4ccccc4[nH]3)cc2c1; 107
17) O=C1Nc2ccc(Cl)cc2/C1=C/c1cc(Cl)c(O)c(Cl)c1; 96
